Hi, quick share: literature pKi data for UniProtKB P00742, several sources combined.
pKi: −log10 of the molar value.
quantity_name: pKi

[[record]]
molecule = "CC(=O)Nc1cccc(-n2nc(C(F)(F)F)c3c2C(=O)N(c2ccc(-c4ccccc4CN(C)C)cc2)CC3)c1"
observed_measurement = 7.06

[[record]]
molecule = "CCOc1ccc(C(Nc2ccc(C(=N)N)cc2)C(=O)NCc2ccccc2)cc1OCC (stereo not given)"
observed_measurement = 4.72

[[record]]
molecule = "COc1ccc(-n2nc(C(F)(F)F)c3c2C(=O)N(c2ccc(C4(CN5CC[C@@H](O)C5)CC4)cc2)CC3)cc1"
observed_measurement = 10.42

[[record]]
molecule = "COC(=O)CC1(C(=O)Nc2ccc(-c3cccc(OC)c3)cc2)CC(c2cccc(C(=N)N)c2)=NO1 (stereo not given)"
observed_measurement = 6.70

[[record]]
molecule = "CN(C)CCN(c1ccccc1)c1ccc(-c2ccc3c(C(N)=O)nn(-c4ccc5onc(N)c5c4)c3c2F)c(F)c1"
observed_measurement = 6.16

[[record]]
molecule = "COC(=O)[C@@H]1CCCCC1NC(=O)C(Cc1ccccc1)c1c[nH]c2ccc(C(=N)N)cc12 (stereo not given in full)"
observed_measurement = 7.72

[[record]]
molecule = "CCOC(=O)C(=O)N(Cc1cccc(F)c1)c1ccc2c(c1)OC(C)(COc1ccc(C(=N)N)cc1)CN2C (stereo not given)"
observed_measurement = 5.80

[[record]]
molecule = "N=C(N)c1cccc(C2=NOC(Cn3cnnn3)(C(=O)Nc3ncc(-c4ccccc4S(N)(=O)=O)cn3)C2)c1 (stereo not given)"
observed_measurement = 8.89

[[record]]
molecule = "N=C(N)c1ccc(CNC(=O)CNC(=O)[C@@H](CO)NS(=O)(=O)Cc2ccccc2)cc1"
observed_measurement = 5.52

[[record]]
molecule = "COc1nccc(-c2ccc(S(=O)(=O)N[C@H]3CCN(Cc4cccc(C(=N)N)c4)C3=O)s2)n1"
observed_measurement = 6.82

